Test system: MDA-MB-231 breast
Assay: NCI-60 one-dose screen, 48 h
Conditions: 10 µM unless noted
About 83,000 compounds went through this panel and 20% of them were active in at least one assay; those are over-represented in the sample as a whole. Calls of active or inactive are those of the source. Rule for the calls: active = growth percent below 10; inactive = the rest.
Your answer must be one of the following: t for active, f for inactive

Consider the worked cases shown below.
- compound: "COc1cnc2c(c1)C(=O)c1c-2n(CCCN2CCN(C)CC2)c(=O)c2cc(Cl)ccc12"
  subjectOfTest: "MDA-MB-231 breast"
  category: "f"
- compound: "CC1CCCN(CCCCOc2ccc(-c3ccc(C#N)cc3)cc2)C1 (stereo not drawn)"
  subjectOfTest: "MDA-MB-231 breast"
  category: "f"
- compound: "COc1ccc(NC(=O)c2sc3c(=O)[nH]c(C(F)(F)F)nc3c2C)cc1"
  subjectOfTest: "MDA-MB-231 breast"
  category: "f"
- compound: "COC(=O)CSc1ccc(Cl)cc1"
  subjectOfTest: "MDA-MB-231 breast"
  category: "f"
- compound: "COc1cnc2c(c1)C(=O)c1c-2n(CCCN2CCNCC2)c(=O)c2cc(Cl)ccc12"
  subjectOfTest: "MDA-MB-231 breast"
  category: "t"
- compound: "Cc1c2c(cc3c1[nH]c1ccccc13)C=NCC2"
  subjectOfTest: "MDA-MB-231 breast"
  category: "f"

Exam item: Returns: the outcome recorded for `Oc1ccccc1-c1nnc(COc2ccc(Cl)cc2Cl)o1` in this assay.
Marked response: f

Exam item: Returns: the outcome recorded for `CCN(CC)c1ccc(/C=N/NC(=O)C[N+](C)(C)C)cc1` in this assay.
Marked response: f

Exam item: Returns: the outcome recorded for `CN1CCC2(CC1)N=C(SCC(=O)Nc1cnc3ccccc3c1)C(c1ccc(Br)cc1)=N2` in this assay.
Marked response: t

Exam item: Returns: the outcome recorded for `Cn1cnc([N+](=O)[O-])c1S(=O)(=O)Oc1cccc2ccccc12` in this assay.
Marked response: f

Exam item: Returns: the outcome recorded for `CC1(C)CC(=O)c2cc3c(N)c(C(=O)Nc4ccc(Cl)cc4)sc3nc2C1` in this assay.
Marked response: f

Exam item: Returns: the outcome recorded for `COc1ccc(-c2nc3c(c(-c4ccc(Cl)cc4)nn3-c3ccccc3)c(-c3ccc(O)cc3)c2C#N)cc1` in this assay.
Marked response: f

Exam item: Returns: the outcome recorded for `CCN(CC)C(=O)O/N=C(/C)c1ccccc1` in this assay.
Marked response: f

Exam item: Returns: the outcome recorded for CCN(CC)CCCC(C)Nc1c(-c2ccccc2)cnc2cc(Cl)ccc12 (stereo not drawn) in this assay.
Marked response: f

====

Listing of entries alongside the reported growth.
Tested on: MDA-MB-435 melanoma
Assay: NCI-60 one-dose screen, 48 h (100 = growth as untreated, 0 = no growth, -100 = all killed)
Details: 10 µM unless noted
About 83,000 compounds went through this panel and 20% of them were active in at least one assay; those are over-represented in the sample as a whole.
Field: numeric (%). Do not append units.

- compound: "CC(=O)N1N=C(C2C(=O)N(C)C(=O)N(C)C2=O)CC1c1ccccc1C(=O)O (stereo unspecified)"
  observedProperty: "growth"
  unitsLabel: "%"
  testValue: 102

growth measured on `O=c1c2cc(Br)cc(Br)c2nc(-c2ccc(Cl)cc2)n1/N=C/c1cccc(F)c1` = 78.8

growth measured on `COc1ccc2nc3ccccc3c(NCc3ccc(Cl)cc3)c2c1` = 24.1

growth measured on `CCOC(=O)c1cc(N)nc2ccccc12` = 108

growth measured on `CCOC(=O)N1C2CCC(C2)N1C(=O)OCC` = 113

growth measured on `CCOC(=O)C(CCCCC(NC(C)=O)(C(=O)OCC)C(=O)OCC)(NC(C)=O)C(=O)OCC` = 104
